- Tested on: Aedes aegypti mosquitoes, insecticide-susceptible Orlando strain
- condition set: screened at 100 μg/cm^2; 24 h; strain not given

# molecular string, measured on, measurement units, 24 h % Mortality, 100 μg/cm^2
rows = [
    ("CCC(=O)Nc1cc(F)c(F)c(F)c1", "Aedes aegypti mosquitoes, insecticide-susceptible Orlando strain", "%", 53),
    ("O=C(CC1CC1)Nc1ccccc1C(F)(F)F", "Aedes aegypti mosquitoes, insecticide-susceptible Orlando strain", "%", 0),
    ("O/N=C(\\Nc1cc(Cl)nc(C(F)(F)F)c1)C(F)(F)C(F)(F)C(F)(F)F", "Aedes aegypti mosquitoes, insecticide-susceptible Orlando strain", "%", 21),
    ("CCC(=O)Nc1c(Cl)cncc1Cl", "Aedes aegypti mosquitoes, insecticide-susceptible Orlando strain", "%", 6),
    ("CCCC(=O)Nc1cc(F)c(F)c(F)c1", "Aedes aegypti mosquitoes, insecticide-susceptible Orlando strain", "%", 38),
    ("O=C(Nc1cc(F)c(F)c(F)c1F)C(F)(F)F", "Aedes aegypti mosquitoes, insecticide-susceptible Orlando strain", "%", 0),
    ("O=C(CCl)Nc1cccc(C(F)(F)F)c1", "Aedes aegypti mosquitoes, insecticide-susceptible Orlando strain", "%", 3),
    ("O=C(CCC1CCCCC1)Nc1cc(C(F)(F)F)cc(C(F)(F)F)c1", "Aedes aegypti mosquitoes, insecticide-susceptible Orlando strain", "%", 7),
    ("C=CC(=O)Nc1ccccc1N", "Aedes aegypti mosquitoes, insecticide-susceptible Orlando strain", "%", 16),
    ("O=C(Nc1cc(F)cc(F)c1)C(F)(F)C(F)(F)F", "Aedes aegypti mosquitoes, insecticide-susceptible Orlando strain", "%", 81),
    ("CCCCCCCCCC(=O)Nc1ccccc1OC(F)(F)F", "Aedes aegypti mosquitoes, insecticide-susceptible Orlando strain", "%", 2),
    ("CCCCC(=O)Nc1cccc(OC(F)(F)F)c1", "Aedes aegypti mosquitoes, insecticide-susceptible Orlando strain", "%", 0),
    ("O=C(Nc1ccc(F)cc1)C(F)(F)C(F)(F)F", "Aedes aegypti mosquitoes, insecticide-susceptible Orlando strain", "%", 94),
]
